- ASSAYED_SYSTEM: 5-HT2A serotoninergic receptors (Homo sapiens)
- Sequence (P28223 whole entry): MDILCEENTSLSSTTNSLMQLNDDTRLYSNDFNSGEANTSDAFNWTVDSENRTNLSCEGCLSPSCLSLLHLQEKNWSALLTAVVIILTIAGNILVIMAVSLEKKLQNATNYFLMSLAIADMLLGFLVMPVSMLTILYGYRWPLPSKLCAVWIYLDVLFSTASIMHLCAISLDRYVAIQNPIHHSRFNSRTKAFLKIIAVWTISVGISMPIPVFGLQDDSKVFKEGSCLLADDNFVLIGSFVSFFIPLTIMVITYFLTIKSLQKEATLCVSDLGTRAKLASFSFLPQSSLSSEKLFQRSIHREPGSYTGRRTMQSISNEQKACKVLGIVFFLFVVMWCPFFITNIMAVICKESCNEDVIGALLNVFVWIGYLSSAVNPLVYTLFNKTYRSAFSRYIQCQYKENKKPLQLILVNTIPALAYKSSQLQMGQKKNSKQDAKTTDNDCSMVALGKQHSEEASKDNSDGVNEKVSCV
- METHOD_NOTES: Cellular functional assay, 5-HT2A serotoninergic receptors
- Format: cell-based
- COND: agonist mode; percent of control specific agonist response
METRIC_NAME: 5-HT2A ag [%] (%)
Please reply with the bare figure in % and do not write the unit itself.

5-HT2A ag [%] in this record for Cc1c(S(=O)(=O)N[C@H]2CCN(CCCc3noc4cc(F)ccc34)C2)sc2ccc(F)cc12 [Compound 203] : −1

5-HT2A ag [%] in this record for Cc1c(S(=O)(=O)N[C@@H]2CCN(CCCc3noc4cc(F)ccc34)C2)sc2ccc(F)cc12 [Compound 202] : 0

5-HT2A ag [%] in this record for Cc1c(S(=O)(=O)NCC2CN(CCCc3noc4cc(F)ccc34)C2)sc2ccc(Cl)cc12 [Compound 131] : −2

5-HT2A ag [%] in this record for COc1ccc2cc(S(=O)(=O)N[C@H]3CCN(CCCc4noc5cc(F)ccc45)C3)ccc2c1 [Compound 231] : 0

5-HT2A ag [%] in this record for O=S(=O)(NC1CN(CCOc2cccc3c2OCCO3)C1)c1cccc2ccccc12 [Compound 94] : 7

5-HT2A ag [%] in this record for Cc1c(S(=O)(=O)NCC2CN(CCCc3noc4cc(F)ccc34)C2)sc2ccc(F)cc12 [Compound 130] : 0

5-HT2A ag [%] in this record for Cc1c(S(=O)(=O)N[C@H]2CCN(CCCc3noc4cc(F)ccc34)C2)sc2ccc(Cl)cc12 [Compound 205] : −3

5-HT2A ag [%] in this record for COc1ccc2cc(S(=O)(=O)NC3CCN(CCCc4noc5cc(F)ccc45)C3)ccc2c1 (stereo not drawn) [Compound 227] : −2

5-HT2A ag [%] in this record for Cc1ccc2sc(S(=O)(=O)NC3CCN(CCCc4noc5cc(F)ccc45)C3)cc2c1 (stereo not drawn) [Compound 226] : −1

5-HT2A ag [%] in this record for Cc1ccc2sc(S(=O)(=O)N[C@@H]3CCN(CCCc4noc5cc(F)ccc45)C3)cc2c1 [Compound 228] : 1

5-HT2A ag [%] in this record for Cc1c(S(=O)(=O)N[C@@H]2CCN(CCCc3noc4cc(F)ccc34)C2)sc2ccc(Cl)cc12 [Compound 204] : −1

5-HT2A ag [%] in this record for O=S(=O)(NC1CCN(CCCc2noc3cc(F)ccc23)C1)c1csc2ccccc12 (stereo not drawn) [Compound 26] : −1

====

Assignment: determine reported inhibition at 1 µM for the given compounds.
- ASSAYED_SYSTEM: 5-HT2A receptor (Homo sapiens, UniProt P28223)
- Construct: purchased PerkinElmer
- Sequence (P28223 whole entry): as above
- METHOD_NOTES: Radioligand binding assay, serotoninergic 5-HT2A receptors
- COND: binding assay result in %, Table 5a
Please reply with the bare figure in % and do not write the unit itself.

// inhibition at 1 µM (5-HT2A receptor (Homo sapiens, UniProt P28223)) for O=S(=O)(NCC1CCN(CCCc2noc3cc(F)ccc23)C1)c1cccc(O)c1 (stereo not drawn) [Compound 254] = 98

// inhibition at 1 µM (5-HT2A receptor (Homo sapiens, UniProt P28223)) for O=S(=O)(NCC1CN(CCCc2noc3cc(F)ccc23)C1)c1cccc(O)c1 [Compound 149] = 96

// inhibition at 1 µM (5-HT2A receptor (Homo sapiens, UniProt P28223)) for O=S(=O)(NCC1CCN(CCOc2cccc3c2OCCO3)C1)c1ccc(Cl)cc1 (stereo not drawn) [Compound 289] = 61

====

- ASSAYED_SYSTEM: 5-HT2A receptor (Homo sapiens, UniProt P28223)
- Construct: purchased PerkinElmer
- METHOD_NOTES: Radioligand binding assay, serotoninergic 5-HT2A receptors
- COND: binding assay result in %, Table 5a
Entry flag: true if inhibition at 1 µM reaches 90%; false if it does not.

Incoming: hey, is inhibition at 1 µM for this one >= 90%? COc1ccc(S(=O)(=O)NC2CCN(CCCc3noc4cc(F)ccc34)C2)cc1 (centres unmarked)
Outgoing: true

Incoming: hey, is inhibition at 1 µM for this one >= 90%? Cn1ccc2cc(S(=O)(=O)NCC3CN(CCOc4cccc5c4OCCO5)C3)ccc21
Outgoing: true

Incoming: hey, is inhibition at 1 µM for this one >= 90%? Cn1ccc2c(S(=O)(=O)NCC3CN(CCOc4cccc5ccccc45)C3)cccc21
Outgoing: false

Incoming: hey, is inhibition at 1 µM for this one >= 90%? O=S(=O)(NCC1CCN(CCCc2noc3cc(F)ccc23)C1)c1ccc2c(c1)CCO2 (centres unmarked)
Outgoing: false

====

- ASSAYED_SYSTEM: 5-HT7 receptor (Homo sapiens, UniProt P34969)
- Construct: purchased PerkinElmer
- Sequence (P34969 whole entry): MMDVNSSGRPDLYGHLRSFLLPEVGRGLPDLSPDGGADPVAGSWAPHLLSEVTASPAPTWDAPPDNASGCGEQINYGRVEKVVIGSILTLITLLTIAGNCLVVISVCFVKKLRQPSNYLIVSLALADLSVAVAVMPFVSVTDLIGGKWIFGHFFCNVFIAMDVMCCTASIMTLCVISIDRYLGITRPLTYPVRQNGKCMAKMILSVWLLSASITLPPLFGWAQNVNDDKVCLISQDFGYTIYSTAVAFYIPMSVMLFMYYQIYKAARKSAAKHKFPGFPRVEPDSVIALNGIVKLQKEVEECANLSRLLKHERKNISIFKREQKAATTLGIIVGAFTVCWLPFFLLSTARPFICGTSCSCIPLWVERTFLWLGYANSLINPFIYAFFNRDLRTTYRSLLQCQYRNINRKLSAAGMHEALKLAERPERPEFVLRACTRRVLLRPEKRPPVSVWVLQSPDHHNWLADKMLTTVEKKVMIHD
- METHOD_NOTES: Radioligand binding assay, serotoninergic 5-HT7 receptors;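 further: test compound at 1 µM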
- COND: binding assay result in %, Table 5a
METRIC_NAME: inhibition at 1 µM (%)
Please reply with the bare figure in % and do not write the unit itself.

inhibition at 1 µM in this record for O=S(=O)(NCC1CN(CCOc2cccc3c2OCCO3)C1)c1cccs1 : 89

inhibition at 1 µM in this record for O=S(=O)(NCC1CCN(CCCc2noc3cc(F)ccc23)C1)c1cccc2ccccc12 (stereo not shown) : 92

inhibition at 1 µM in this record for Cc1cccc(S(=O)(=O)NC2CCN(CCCc3c[nH]c4ccc(Cl)cc34)C2)c1 (stereo not shown) : 98

inhibition at 1 µM in this record for O=S(=O)(NC1CCN(CCCc2c[nH]c3ccc(F)cc23)C1)c1ccc2ccccc2c1 (stereo not shown) : 93

inhibition at 1 µM in this record for O=S(=O)(NC1CCN(CCOc2nsc3ccccc23)C1)c1ccc2ccccc2c1 (stereo not shown) : 90

inhibition at 1 µM in this record for COc1ccc2cc(S(=O)(=O)NC3CCN(CCCc4noc5cc(F)ccc45)C3)ccc2c1 (stereo not shown) : 91

inhibition at 1 µM in this record for O=S(=O)(NCC1CCN(CCCc2noc3cc(F)ccc23)C1)c1ccc2cc(Cl)ccc2c1 (stereo not shown) : 96

====

- ASSAYED_SYSTEM: serotonin transporter (SERT) (Homo sapiens)
- Construct: expressed in transfected cells; host or cells: CHO cells
- Sequence (P31645 whole entry): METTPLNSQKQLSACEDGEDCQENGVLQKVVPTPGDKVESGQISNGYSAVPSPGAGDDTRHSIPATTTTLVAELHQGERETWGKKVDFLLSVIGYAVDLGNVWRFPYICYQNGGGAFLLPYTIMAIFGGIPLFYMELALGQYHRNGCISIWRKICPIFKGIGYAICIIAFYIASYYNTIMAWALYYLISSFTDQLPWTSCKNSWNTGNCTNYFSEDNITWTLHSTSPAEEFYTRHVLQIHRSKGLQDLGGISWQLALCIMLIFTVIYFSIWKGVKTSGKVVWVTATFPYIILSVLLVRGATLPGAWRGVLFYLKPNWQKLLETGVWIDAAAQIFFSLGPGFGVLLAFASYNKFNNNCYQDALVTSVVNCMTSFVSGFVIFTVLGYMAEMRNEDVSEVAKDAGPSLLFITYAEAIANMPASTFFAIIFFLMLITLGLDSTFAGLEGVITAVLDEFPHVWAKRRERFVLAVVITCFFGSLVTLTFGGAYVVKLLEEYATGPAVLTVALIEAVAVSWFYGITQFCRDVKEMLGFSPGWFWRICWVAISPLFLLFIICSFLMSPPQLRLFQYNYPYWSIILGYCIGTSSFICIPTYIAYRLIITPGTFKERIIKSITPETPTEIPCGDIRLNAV
- METHOD_NOTES: Radioligand binding assay, serotonin transporter (SERT)
- COND: binding assay, test compound 1×10^−6 M
Assignment: determine reported SERT [%] for the given compounds.
Please reply with the bare figure in % and do not write the unit itself.

// SERT [%] (serotonin transporter (SERT) (Homo sapiens)) for O=S(=O)(NC1CN(CCOc2cccc3c2OCCO3)C1)c1cccc(Cl)c1 [Compound 91] = −4

// SERT [%] (serotonin transporter (SERT) (Homo sapiens)) for O=S(=O)(NC1CCN(CCOc2cccc3ccccc23)CC1)c1ccc2ccccc2c1 [Compound 120] = 21

// SERT [%] (serotonin transporter (SERT) (Homo sapiens)) for O=S(=O)(NC1CCN(CCOc2cccc3ccccc23)C1)c1cccc(O)c1 (stereo not drawn) [Compound 115] = 83

====

- ASSAYED_SYSTEM: serotonin transporter (SERT) (Homo sapiens)
- Construct: expressed in transfected cells; host or cells: CHO cells
- METHOD_NOTES: Radioligand binding assay, serotonin transporter (SERT)
- COND: binding assay, test compound 1×10^−6 M
Entry flag: 1.0 if inhibition at 1 µM reaches 20%; 0.0 if it does not.

Incoming: hey, is inhibition at 1 µM for this one >= 20%? O=S(=O)(NCC1CCN(CCCc2noc3cc(F)ccc23)C1)c1cccc(O)c1 (stereo not drawn)
Outgoing: 0.0

Incoming: hey, is inhibition at 1 µM for this one >= 20%? Cn1ccc2cc(S(=O)(=O)NCC3CCN(CCOc4cccc5ccccc45)C3)ccc21 (stereo not drawn)
Outgoing: 1.0

Incoming: hey, is inhibition at 1 µM for this one >= 20%? O=S(=O)(NC1CCN(CCCc2noc3cc(F)ccc23)C1)c1cccc(C(F)(F)F)c1 (stereo not drawn)
Outgoing: 0.0

Incoming: hey, is inhibition at 1 µM for this one >= 20%? O=S(=O)(NCC1CN(CCOc2cccc3c2OCCO3)C1)c1cc2ccccc2o1
Outgoing: 1.0

Incoming: hey, is inhibition at 1 µM for this one >= 20%? Cc1cc(S(=O)(=O)NCC2CCN(CCOc3cccc4c3OCCO4)C2)c(C)s1 (stereo not drawn)
Outgoing: 1.0

Incoming: hey, is inhibition at 1 µM for this one >= 20%? Cc1cc(S(=O)(=O)N[C@H]2CCN(CCCc3noc4cc(F)ccc34)C2)c(C)s1
Outgoing: 0.0

Incoming: hey, is inhibition at 1 µM for this one >= 20%? O=S(=O)(NCC1CN(CCCc2c[nH]c3ccc(Cl)cc23)C1)c1ccc2ccccc2c1
Outgoing: 1.0

Incoming: hey, is inhibition at 1 µM for this one >= 20%? O=S(=O)(NCC1CCN(CCOc2cccc3c2OCCO3)C1)c1ccc(Br)cc1 (stereo not drawn)
Outgoing: 1.0

Incoming: hey, is inhibition at 1 µM for this one >= 20%? O=S(=O)(NC1CCN(CCCc2noc3cc(F)ccc23)C1)c1cnc2ccccn12 (stereo not drawn)
Outgoing: 1.0
